system.under.test: human dopamine D2Long (D2L) receptors (Homo sapiens, UniProt P14416)
Sequence (P14416 whole entry): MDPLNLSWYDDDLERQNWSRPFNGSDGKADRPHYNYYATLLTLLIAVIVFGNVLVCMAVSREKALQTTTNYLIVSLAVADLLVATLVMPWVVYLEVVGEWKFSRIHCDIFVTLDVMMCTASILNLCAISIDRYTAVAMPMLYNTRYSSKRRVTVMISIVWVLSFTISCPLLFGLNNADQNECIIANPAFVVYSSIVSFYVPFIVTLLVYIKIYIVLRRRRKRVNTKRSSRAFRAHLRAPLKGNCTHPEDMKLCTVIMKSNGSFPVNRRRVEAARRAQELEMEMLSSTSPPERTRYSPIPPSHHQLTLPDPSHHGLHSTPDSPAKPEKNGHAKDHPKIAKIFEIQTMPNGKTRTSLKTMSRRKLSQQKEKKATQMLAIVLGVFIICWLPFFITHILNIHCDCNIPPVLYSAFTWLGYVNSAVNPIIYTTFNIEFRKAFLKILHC
Structures can show the parent of a compound that is named as a salt.
observed.property: pKi
pKi field: float, defined as -log10 of concentration (mol/L).

Illustrative cases are given below, each with its answer.
Cc1ccc2c(c1O)C[C@@H](C1CCN(Cc3ccc(Oc4ccccc4)cc3)CC1)O[C@H]2CN [Example 46, dihydrochloride]    6.67
Cc1ccc2c(c1O)C[C@@H](C1CCN(Cc3cccc(Cl)c3)CC1)O[C@H]2CN [Example 37, dihydrobromide]    6.45
Cc1ccc2c(c1O)C[C@@H](C1CCN(Cc3ccccc3F)CC1)O[C@H]2CN [Example 36, dihydrobromide]    6.13
Cc1ccc2c(c1O)C[C@@H](C1CCN(C(=O)Oc3ccccc3C(F)(F)F)CC1)O[C@H]2CN [Example 119, hydrochloride]    6.19
Cc1ccc2c(c1O)C[C@@H](C1CCN(CCNC(=O)c3ccc(F)cc3)CC1)O[C@H]2CN [Example 189, dihydrobromide]    7.21

Form field, pKi with human dopamine D2Long (D2L) receptors (Homo sapiens, UniProt P14416), item Cc1ccc(C(=O)NCCN2CCC([C@@H]3Cc4c(ccc(C)c4O)[C@H](CN)O3)CC2)cc1 [Example 190, dihydrobromide] : 6.44

Form field, pKi with human dopamine D2Long (D2L) receptors (Homo sapiens, UniProt P14416), item CNC[C@@H]1O[C@H](C2CCN(Cc3ccc(F)cc3)CC2)Cc2c1ccc(C)c2O [Example 95, dihydrochloride] : 6.34

Form field, pKi with human dopamine D2Long (D2L) receptors (Homo sapiens, UniProt P14416), item CCC(CN1CCC([C@@H]2Cc3c(ccc(C)c3O)[C@H](CNC)O2)CC1)c1ccccc1 (some centres unmarked) [Example 194, dihydrochloride] : 6.19

Form field, pKi with human dopamine D2Long (D2L) receptors (Homo sapiens, UniProt P14416), item C=CCN(C)C[C@@H]1O[C@H](C2CCN(Cc3ccccc3)CC2)Cc2c1ccc(C)c2O [Example 176] : 6.91

Form field, pKi with human dopamine D2Long (D2L) receptors (Homo sapiens, UniProt P14416), item Cc1ccc2c(c1O)C[C@@H](C1CCN(CCNC(=O)Nc3ccc(F)cc3)CC1)O[C@H]2CN [Example 192, dihydrobromide] : 6.32

Form field, pKi with human dopamine D2Long (D2L) receptors (Homo sapiens, UniProt P14416), item CCCN(CCC)C[C@@H]1O[C@H](C2CCN(Cc3ccccc3)CC2)Cc2c1ccc(C)c2O [Example 188, dihydrochloride] : 6.85
